# Tested on: ERK4;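 further: KINOMEscan kinase panel screen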
# Construct: gene MAPK4
# condition.context: concentration: 1 μM,replicates: in singlicate; n = 1
experimental.endpoint: %Inh (%)
Numbers only, in %.

Completed entries (count: 5):
{"molecule": "Cn1ccc2ncnc(Oc3ccc(NC(=O)Nc4ccnc(C(F)(F)F)c4)c(Cl)c3)c21", "%Inh / %": 0}
{"molecule": "CN(c1ccccc1CNc1nc(Nc2ccc3c(c2)CC(=O)N3)ncc1C(F)(F)F)S(C)(=O)=O", "%Inh / %": 5}
{"molecule": "CC(C)c1nc(-c2cccc(NS(=O)(=O)c3ccccc3)c2)c(-c2ccnc(Nc3ccc4c(c3)CN(C)CC4)n2)s1", "%Inh / %": 43}
{"molecule": "Cc1nnc(-c2ccc3occ(-c4ccc(S(C)=O)cc4)c3n2)o1 (centres unmarked)", "%Inh / %": 0}
{"molecule": "Cc1ccc2c(-c3ccnc(Nc4ccc(C(F)(F)F)cc4)n3)cnn2n1", "%Inh / %": 0}

Dear colleague, could you send me %Inh for each of the items below? Thanks.
1. C[C@@H]1CNc2c(sc3ccc4nc(-c5ccc(O)cc5)ccc4c23)C(=O)N1
2. O=C(Nc1n[nH]c2cc(-c3ccco3)ccc12)C1CC1
3. CC(=O)Nc1nc2cnc(Nc3cc(NC(=O)c4cccc(CC(C)(C)C#N)c4)ccc3C)nc2s1
4. COc1cccc(OC)c1C(=O)Nc1cccc(-c2nn3ccccc3c2-c2ccnc(Nc3cccc(F)c3)n2)c1
5. Cn1ccc2ncnc(Oc3ccc(NC(=O)Nc4cccc(C(F)(F)F)c4)c(Cl)c3)c21
6. O=C(Nc1cccc(C(F)(F)F)c1)c1cccc(Oc2ccc3nccn3n2)c1

Response:
[13, 3, 4, 9, 10, 2]

Where these numbers come from: paper PMC5540273
